MEASURE: melting point

Below are worked cases with known answers.
Cc1cccc(-c2[nH]c(C(C)C)nc2-c2cccc(-c3ccc(F)cc3F)c2)n1: 70 to 72 °C
CC1CCc2c(N3CCNCC3)ccc3c2N1C=C(C(=O)O)C3 (configuration not stated): 264 to 265 °C
CCCCC1(CCCC)C(=O)N(C(C)(C)C)CC(C)(C)N1OC(C)(C)C#N: 68 to 74 °C
COc1ccc2c(=O)c(-c3ccccc3)c(SCc3cccnc3)oc2c1: 152 °C
BrCCCc1ncnn1C(c1ccccc1)(c1ccccc1)c1ccccc1: 146 to 149 °C

Task: Dear colleague, I am looking for the recorded melting point of the following compound: CN(C)c1c(C=O)n(C)c(=O)n1-c1cccc(C(F)(F)F)c1
Result: 87 to 90 °C

Task: Dear colleague, I am looking for the recorded melting point of the following compound: Cn1c(=O)[nH]c2ccc(Br)cc21
Result: 237 to 238 °C

Task: Dear colleague, I am looking for the recorded melting point of the following compound: COc1ccc(NC(C)=O)c(Sc2ccc(C#N)cc2[N+](=O)[O-])c1
Result: 195 to 199 °C

Task: Dear colleague, I am looking for the recorded melting point of the following compound: O=c1c2ccccc2sc2c(Cl)cc(Cl)c(Oc3ccccc3)c12
Result: 197 to 198 °C

Task: Dear colleague, I am looking for the recorded melting point of the following compound: Cc1oc(-c2ccccc2)nc1COc1ccc2oc(/C=C/CO)cc2c1
Result: 145 to 146 °C

Task: Dear colleague, I am looking for the recorded melting point of the following compound: O=C1NC(=O)c2nc3ccccc3cc21
Result: > 300 °C

Task: Dear colleague, I am looking for the recorded melting point of the following compound: COc1ccc(S(=O)(=O)c2cccs2)c(Cl)c1Cl
Result: 190 °C

Task: Dear colleague, I am looking for the recorded melting point of the following compound: CCCCC(=O)Nc1cccc([N+](=O)[O-])c1
Result: 65 °C

Task: Dear colleague, I am looking for the recorded melting point of the following compound: Nc1ncc(-c2ccc([N+](=O)[O-])c(Cl)c2Cl)c(N)n1
Result: 237 to 239 °C

Task: Dear colleague, I am looking for the recorded melting point of the following compound: COC(=O)CCc1cc(C(C)(C)C)c(O[Si](C)(C)Oc2c(C(C)(C)C)cc(CCC(=O)OC)cc2C(C)(C)C)c(C(C)(C)C)c1
Result: 122 to 129 °C

---

MEASURE: melting point

Below are worked cases with known answers.
COc1ccc(C(=O)NC(=O)N2CC2C#N)cc1 (stereo not drawn): 130 to 132 °C
Cc1nccn1CCCNC(=O)c1ccc(Cl)nc1: 175 to 177 °C
[N-]=[N+]=NCC(O)c1cc(S(N)(=O)=O)ccc1F (stereo not drawn): 86 °C
Cc1noc(NS(=O)(=O)c2ccsc2C(=O)c2ccc3c(c2)OCO3)c1Br: 47 to 49 °C
Fc1ccccc1-c1noc2c(Cl)c(OCCBr)ccc12: 131 to 132 °C

Task: Dear colleague, I am looking for the recorded melting point of the following compound: NC(=O)c1sc2ncnc(-c3cccc(NC(=O)Nc4cccnc4)c3)c2c1N
Result: 199 to 200 °C

Task: Dear colleague, I am looking for the recorded melting point of the following compound: CC1(C)COC(C(=O)O)OC1
Result: 58 to 60 °C

Task: Dear colleague, I am looking for the recorded melting point of the following compound: COc1cc(OC)c(-c2c(C)noc2C)cc1C=CC(=O)c1ccc(C(=O)O)cc1
Result: > 260 °C

Task: Dear colleague, I am looking for the recorded melting point of the following compound: COC1C2=C3C(=CN1OC)OCCC3CCC2 (stereo not drawn)
Result: 235 to 238 °C

Task: Dear colleague, I am looking for the recorded melting point of the following compound: CCOC(=O)c1cnn2c1c(NC1CC1)nc1ccccc12
Result: 167 to 169 °C

Task: Dear colleague, I am looking for the recorded melting point of the following compound: COC(=O)C1=NNC(C)=C(C(=O)OC)C1c1ccccc1 (stereo not drawn)
Result: 187 °C

---

MEASURE: melting point

Below are worked cases with known answers.
CC(O)C(C)Sc1cc(C(C)(C)C)c(O)c(C(C)(C)C)c1 (stereo not given): 73 °C
CC(C)(C)c1cc(C(=O)Nc2nc(CC(=O)NCCN3CCN(c4ncccn4)CC3)cs2)cc(C(C)(C)C)c1O: 175 to 179 °C
CC(C)(C)c1ccc2c(c1)cc(-c1ccccc1)n2-c1ccc(O)c(C(=O)O)c1: 271 to 273 °C
Cc1noc(NS(=O)(=O)c2c(C)sc3ccccc23)c1Br: 131 to 133 °C

Now for another entry.
Task: Dear colleague, I am looking for the recorded melting point of the following molecule: O=C(Nc1cccnc1)N1CCc2cc(Cl)ccc21
Result: 204 to 205 °C

---

MEASURE: melting point

Below are worked cases with known answers.
CCn1c(C)c(C2(N(c3ccccc3)c3ccc(NC(C)=O)cc3)OC(=O)c3ccccc32)c2ccccc21 (centres undefined): 93 to 116 °C
CCNc1ccc(-c2c(N)nc(N)nc2CC)cc1[N+](=O)[O-]: 275 to 276 °C
COC(=O)Nc1ccc(OCc2nc3cc(F)ccc3s2)cc1C: 165 to 168 °C
N#CC(C#N)C1(C#N)CCSc2ccccc21 (centres undefined): 136 to 137 °C
Cc1c(-c2cc(Nc3cc4n(n3)CCN(C)C4)c(=O)n(CO)n2)cccc1N1Cc2cc(C(C)(C)C)sc2C1=O: 185 to 187 °C

Task: Dear colleague, I am looking for the recorded melting point of the following compound: Nc1cc(C(=O)O)ccc1C(F)(F)F
Result: 175 to 177 °C

Task: Dear colleague, I am looking for the recorded melting point of the following compound: CCOC(=O)C=Cc1cc([N+](=O)[O-])c(F)cc1Cl
Result: 86 to 88 °C

Task: Dear colleague, I am looking for the recorded melting point of the following compound: CC(=O)n1cc(C2=CCN(CCCN3c4cccc5cccc(c45)S3(=O)=O)CC2)c2ccccc21
Result: 163 °C

Task: Dear colleague, I am looking for the recorded melting point of the following compound: COc1ccc(CC2SC(=O)NC2=O)cc1NC(=O)Cc1ccc(C(F)(F)F)cc1 (centres undefined)
Result: 147 to 149 °C

---

Form field: melting point (one value per entry).

COc1cc(N2CCCC2)ncc1NC(=O)c1cc2cc(F)ccc2n1Cc1cccc(F)c1: 196 to 198 °C
COC(=O)c1c(S(=O)C(C)C)c2cc(OC)ccc2n1C (centres undefined): 130 to 134 °C
CN(C)C=Nc1[nH]nc(Nc2cccc(Cl)c2)c1C#N: > 260 °C
CS(=O)C1CC(=O)N1CC(=O)NCc1ccccc1 (single isomer, unassigned; (-)): 138 to 140 °C
c1ccc(CN(Cc2ccccc2)c2cccc3c2ncc2nc4n(c23)CCC4)cc1: 275 to 277 °C
Cc1sc2c(Br)c3ccccc3c(-c3cc(Br)c(O)c([N+](=O)[O-])c3)c2c1C: 129 to 130 °C

Task: Dear colleague, I am looking for the recorded melting point of the following compound: CC(C)Cc1c2c(nn1C)c(N)nc1ccccc12
Result: 213 to 214 °C

Task: Dear colleague, I am looking for the recorded melting point of the following compound: O=C1c2ccccc2C(=O)N1CCN1c2ccccc2N(Cc2ccccc2)C(=O)[C@H]2CCC[C@H]21 (relative stereo)
Result: 142 to 143 °C

Task: Dear colleague, I am looking for the recorded melting point of the following compound: O=C(Oc1ccc([N+](=O)[O-])cc1)OC1CCN(C(=O)Oc2ccc(Oc3ccccc3)cc2)CC1
Result: 108 to 109 °C

---

MEASURE: melting point

O=C(O)CC/C=C\CC[C@@H]1[C@@H](OCc2ccc(-c3ccccc3)cc2)CO[C@@H]1c1cccnc1: 94 to 96 °C
C#CCN(Cc1cc2c(=O)n(C)c(CN3CCCCC3)nc2cc1Cl)c1ccc(C(=O)OC(C)(C)C)cc1: 162 to 163 °C
O=[N+]([O-])c1cc(-c2ccncc2)ccc1O: 210 to 212 °C
O=[N+]([O-])C=C1SCCCN1S(=O)(=O)CCCCl: 99 °C
COC(=O)Cn1c(SCc2nccc(SCCN3CCOCC3)c2C)nc2ccccc21: 128 to 129 °C

Task: Dear colleague, I am looking for the recorded melting point of the following compound: COc1ccc(-c2cnn(-c3cccc(C(=O)O)c3)c2)cc1
Result: 238 to 239 °C

Task: Dear colleague, I am looking for the recorded melting point of the following compound: Cc1ccc(COc2ncc(F)c(NS(C)(=O)=O)n2)cc1
Result: 145 to 148 °C

---

MEASURE: melting point (°C)

Below are worked cases with known answers.
O=C(c1ccccc1)c1nc(Cl)ccc1[N+](=O)[O-]: 107
COc1ccc(C2OC(=O)N3CC(=O)CCC23)cc1OC (stereo not given): 180
CC(C)(C)C(=O)Cn1ccnc1: 20

P. O=C(CC1(c2ccc(OCc3ccc4ccccc4n3)cc2)CCCC1)NS(=O)(=O)Cc1ccccc1
Q. CN(C)S(=O)(=O)c1ccc2c(c1)CC(Br)C2=O (stereo not given)
Task: Could you please tell me which of these two has the higher melting point: P or Q ? Write down the label of the entry you select.
Result: P
